Measured protein stability index, listed per entry.
B1: CLINT1 (parent)
chain: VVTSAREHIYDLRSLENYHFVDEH

Variants of: B1
ASSAY_TEXT: protein stability index of a GFP-peptide fusion (GPS, HEK-293T) (PSI 1-6); higher = more stable;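 further: lentivirally expressed fusions sorted by FACS into six bins by GFP to DsRed ratio, PSI derived from sequencing read proportions per bin multiplied by bin number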
MEASUREMENT_CONDITIONS: c terminus: a fixed tail appended
TEST_READOUT: protein stability index

{"columns": ["MUTATION_STRING", "READOUT_NUMBER"],
 "data": [
  ["N17D", 3.52],
  ["D11E", 2.38],
  ["H19C", 2.33],
  ["F20T", 2.99],
  ["S14Q", 2.31],
  ["F20R", 3.24],
  ["Y10C", 3.66],
  ["Y18I", 3],
  ["S14M", 2.49],
  ["D11V", 2.89],
  ["N17Y", 1.97],
  ["Y10F", 2.42],
  ["N17T", 2.67],
  ["E23W", 3.37],
  ["E23C", 1.64],
  ["E16D", 2.77],
  ["N17K", 2.63],
  ["A5I", 3.23],
  ["A5Y", 2.24],
  ["V2R", 3.13],
  ["L12V", 2.7],
  ["F20K", 3.33]
]}
